FYI, the data here is from PubChem BioAssay (NCI).

Recorded measurements of TGI, one per entry
Test system: OVCAR-4 ovarian
Assay: NCI tumour cell line growth inhibition, 48 h

Worked examples follow.
compound | TGI
CCCCCCCCCCCCCCCCCCOc1ccccc1CC(=O)OCC[N+]1(C)CCCCC1 | 10.5 µM
O=C1C(Cl)C2(CC(/C=C/c3ccccc3Cl)=NN2c2cccc(S(=O)(=O)O)c2)N1c1nc2ccccc2s1 (stereo not drawn) | > 100 µM
Cn1cc2ccccc2c1-c1nc(F)nc(F)n1 | > 100 µM

API: value(readout= TGI, system= OVCAR-4 ovarian, query= OC(c1ccccc1)(c1ccccc1)c1ccncc1 )
> 100 µM

What do you get for NN(CC(=O)O)CC(=O)O ?
> 100 µM

What do you get for FC(F)(F)c1ccc(Nc2nc(-c3c(C(F)(F)F)nc4ccccn34)cs2)cc1 ?
15.6 µM

What do you get for CCc1c2c([nH]c(=S)c1C#N)CCC2 ?
> 100 µM

What do you get for CC(C)(C)OC(=O)N1CCN(CCn2cc(C(F)(F)F)c3c(Cl)ncnc32)CC1 ?
26.7 µM

###

Tested on: COLO 205 colon
Assay: NCI tumour cell line growth inhibition, 48 h
Recorded measurements of TGI, one per entry

compound | assay-system | TGI
CC(=O)OCC1=C(CCC#N)N2C(=O)C(NC(=O)Cc3cccs3)C2S(=O)C1 (stereo unspecified) | COLO 205 colon | > 100 µM
O=C1c2ccccc2C(O)(O)C1(O)C1(O)C(=O)c2ccccc2C1(O)O (stereo unspecified) | COLO 205 colon | 40.5 µM

Requested field: TGI. Item: CCCCNc1nc(C#N)c(N)s1
> 100 µM

What do you get for COc1ccc(-c2c[nH]c(C(=O)O)c2-c2cc(OC)c(OC)c(OC)c2)cc1 ?
17 µM

What do you get for COC1(OC)c2no[n+]([O-])c2CCC1O (stereo unspecified) ?
> 100 µM

What do you get for CCOC(=O)C1=C(C)OC2(O)C=CC(O)=C3C(=O)N(c4ccccc4)C(=O)C312 (stereo unspecified) ?
> 100 µM

###

Recorded measurements of GI50, one per entry
Test system: SNB-19 CNS
Assay: NCI tumour cell line growth inhibition, 48 h

Requested field: GI50. Item: CC(C)(C)n1cc(-c2ccnc(NCCCNS(=O)(=O)c3ccc(C(F)(F)F)cc3)c2)c(-c2cccc(O)c2)n1
1.98 µM

What do you get for C=C1C(=O)O[C@H]2[C@H]1CC/C(COC(=O)NCc1cn(C)c3ccccc13)=C\CC[C@@]1(C)O[C@@H]21 ?
2.84 µM

What do you get for C[C@H]1[C@H](C)CC[C@]2(CO)CC[C@]3(C)C(=CC[C@@H]4[C@@]5(C)CCCNC(C)(C)[C@@H]5CC[C@]43C)[C@H]12 ?
1.86 µM

What do you get for Nc1ncnc2nc[nH]c12 ?
105 µM

###

Recorded measurements of TGI, one per entry
Test system: HOP-62 NSCLC
Experiment: NCI tumour cell line growth inhibition, 48 h

Worked examples follow.
compound | quantity-kind | endpoint-value
CP1(=O)CCCCC1 | TGI | > 100 µM
COc1ccc2nc3cccc([N+](=O)[O-])c3c(NCCCCCC(=O)O)c2c1 | TGI | 0.187 µM

--- query ---
API: value(readout= TGI, system= HOP-62 NSCLC, query= CC(=O)NC1C(OCc2ccccc2)OC(CO)C(O)C1OC(C)C(=O)NC(C(=O)N[C@@H](CCC(=O)NCCNCCNc1c2ccccc2nc2cccc([N+](=O)[O-])c12)C(N)=O)C(C)C (some centres undefined) )
> 100 µM

###

Test system: HCC-2998 colon
Assay: NCI tumour cell line growth inhibition, 48 h; in the data active = GI50 below about 0.43 µM; inactive = the rest
// one of active, inactive, no free text

Field: example entries. Status: answers known.
compound | class
Cc1nn2c(/C=C3\C(=O)Nc4ccc(Cl)cc43)c(C)nc2s1 | inactive
Cc1c(C(N)=O)sc2c1C(=O)N(Cc1ccccc1)C1=NN=C(c3ccc(Cl)cc3)CN12 | inactive

Could you kindly confirm the outcome this assay logged for COc1ccc(/C(COc2ccc3c(=O)cc(-c4ccccc4)oc3c2)=N\O)cc1 ?
inactive

What do you get for FC(F)(F)c1ccc(Nc2nc(-c3c(C(F)(F)F)nc4ccccn34)cs2)cc1 ?
active

What do you get for CC(C)(C)OC(=O)N1CCN(CCn2cc(C(F)(F)F)c3c(Cl)ncnc32)CC1 ?
inactive

What do you get for Cc1cc(O)c(C(C)C)cc1S(=O)(=O)O (tested in a mixture with another compound) ?
active

What do you get for O=C1Nc2ccccc2/C1=C/C(=O)c1coc2c1C(=O)c1ccccc1C2=O ?
inactive

What do you get for O=C([CH-]C(=O)c1ccccc1)c1ccccc1.O=C([CH-]C(=O)c1ccccc1)c1ccccc1.[La+3].[OH-].[OH3+] ?
inactive

What do you get for COc1ccc(-c2cn(-c3cc(OC)c(OC)c(OC)c3)c(SCc3ccccc3)n2)cc1OC ?
inactive

What do you get for C(#Cc1ccccc1C#Cc1cccs1)c1cccs1 ?
inactive

What do you get for Nc1c(C(=O)c2cccc(-c3ccncc3)c2)cnn1-c1ccc(F)cc1F ?
inactive

What do you get for COc1cc([N+](=O)[O-])c(OC)cc1-c1nc2sc(Cl)cn2c1/C(N)=N/C(=N)N ?
inactive

What do you get for CN(O)c1nc(N(C)O)nc(N2CCOCC2)n1 ?
inactive

What do you get for COc1cc2c(c(OC)c1OC)-c1ccc(SC)c(=O)cc1C(CO)C2 (stereo unspecified) ?
active

What do you get for C#Cc1c(F)ccc2cc(O)cc(-c3ncc4c(N5CC6CCC(C5)N6)nc(OC[C@@]56CCCN5C[C@H](F)C6)nc4c3F)c12 ?
inactive

What do you get for COc1cnc2c(c1)C(=O)c1c-2n(CCCn2ccnc2)c(=O)c2cc(F)ccc12 ?
active

What do you get for CCN(CC)CCCCNc1c2ccccc2[n+](C)c2c1[nH]c1ccccc12 ?
active

What do you get for COc1ccc(-c2nc(-c3nc4ccc(OC)cc4[nH]3)c3ccccn23)cc1 ?
inactive

What do you get for CC(C)N(Cc1ccccc1)c1c(S)ssc1=S ?
inactive

What do you get for CC/C=C1/C(=O)C=C[C@@H]1C/C=C\CCCC(=O)OC ?
inactive

What do you get for C=C(C)C(=O)O[C@H]1CC(=C)[C@@H]2C[C@H](O)[C@](O)(CCl)[C@@H]2[C@H]2OC(=O)C(=C)[C@@H]21 ?
inactive

###

System: HS 578T breast
Assay: NCI tumour cell line growth inhibition, 48 h; in the data active = GI50 below about 0.43 µM; inactive = the rest
// one of active, inactive, no free text

compound | assay-system | class
Cc1nn2c(/C=C3\C(=O)Nc4ccc(Cl)cc43)c(C)nc2s1 | HS 578T breast | inactive
C[C@H]1[C@H](C)CC[C@]2(CO)CC[C@]3(C)C(=CC[C@@H]4[C@@]5(C)CCCNC(C)(C)[C@@H]5CC[C@]43C)[C@H]12 | HS 578T breast | inactive
CCCCCCCCCCCCCCCCCCOc1ccccc1CC(=O)OCC[N+]1(C)CCCCC1 | HS 578T breast | inactive
FC(F)(F)c1ccc(Nc2nc(-c3c(C(F)(F)F)nc4ccccn34)cs2)cc1 | HS 578T breast | active

Could you kindly confirm the outcome this assay logged for CC(C)(C)OC(=O)N1CCN(CCn2cc(C(F)(F)F)c3c(Cl)ncnc32)CC1 ?
inactive

What do you get for Fc1ccc2c(c1)C1=NN(c3ccccc3)C(F)C1CO2 (stereo not given) ?
inactive

What do you get for COc1ccc2[nH]c(O)c(N=NC(=O)c3oc4ccccc4c3C)c2c1 ?
inactive

What do you get for COc1ccc(-c2cn(-c3cc(OC)c(OC)c(OC)c3)c(SCc3ccccc3)n2)cc1OC ?
inactive

What do you get for COc1cc(/C=C/C(=O)c2cccc(Nc3nc(Nc4ccccc4)nc(Nc4ccccc4)n3)c2)cc(OC)c1OC ?
inactive

What do you get for COc1ccc(-c2cc(=O)[nH]c3c(OC)c4ccccc4c(OC)c23)cc1 ?
active

What do you get for COc1ccc(C(=O)OC2C(OC3C(O)COC(O[C@H]4C[C@H]5[C@@H]6CC=C7C[C@@H](O)CC[C@]7(C)[C@H]6CC[C@]5(C)[C@H]4[C@H](C)C(=O)CCC(C)C)C3OC(N)=O)OCC(O)C2O)cc1 (stereo not given in full) ?
active

What do you get for c1ccc2[nH]c(-c3ccc(-c4nccc5c4[nH]c4ccccc45)cc3)nc2c1 ?
inactive

What do you get for CN(C)CCN1C(=O)c2ccccc2N(C)c2ccccc21 ?
inactive

What do you get for COc1ccc(-c2c[nH]c(C(=O)O)c2-c2cc(OC)c(OC)c(OC)c2)cc1 ?
inactive

What do you get for COc1ccc2nc3cccc([N+](=O)[O-])c3c(NCCCCCC(=O)O)c2c1 ?
inactive

###

Tested on: SK-MEL-28 melanoma
Assay: NCI tumour cell line growth inhibition, 48 h
quantity-kind: TGI (µM)
Numbers only; they are read as µM.

compound | unit-abbrev | endpoint-value
FC(F)(F)c1ccc(Nc2nc(-c3c(C(F)(F)F)nc4ccccn34)cs2)cc1 | µM | 16.9
CCCCCCCCCCCCCCCCCCOc1ccccc1CC(=O)OCC[N+]1(C)CCCCC1 | µM | 6.33
CN[C@@H](C)C(=O)N[C@H](C(=O)N1CCC[C@H]1C(=O)Nc1snnc1-c1ccccc1)C1CCCCC1 | µM | 61.6
CC(C)(C)OC(=O)N1CCN(CCn2cc(C(F)(F)F)c3c(Cl)ncnc32)CC1 | µM | 3.25
Cc1cc2c(cc1-c1cc3c(cc1C)C(C(C)C)=C(O)C(=O)/C3=C\Nc1c3ccccc3nc3ccccc13)/C(=C/Nc1c3ccccc3nc3ccccc13)C(=O)C(O)=C2C(C)C | µM | 19.5
CCOc1cc(NC(C)=O)ccc1C(=O)NN1C(=O)C(Cl)C1c1ccccc1 (stereo unspecified) | µM | 36.4
COC(=O)c1nc(-c2ccccc2)oc1S(=O)(=O)Cc1ccccc1 | µM | 20.4

--- query ---
Requested field: TGI. Item: C#Cc1c(F)ccc2cc(O)cc(-c3ncc4c(N5CC6CCC(C5)N6)nc(OC[C@@]56CCCN5C[C@H](F)C6)nc4c3F)c12
29.1
